Values compiled from patent US6875741.

# Target under test: T1, soluble human insulin receptor-immunoglobulin heavy chain chimera (human, UniProt P06213 28-956)
# T1 construct: extracellular domain; Heterotetramer; also called IR; sIR-Fc; not shown: immunoglobulin heavy chain constant domains replacing the transmembrane and intr
# Measurement protocol: phage ELISA ratios compared
Measurement kind: IR/IGF-1R ratio comparison
One number for each entry.

Recorded results for 3 binders are shown here.
>>> df
                                     binder  numeric_readout
0          GFREGSFYDWFQAQVT [E4Dα-2-D11-IR]              0.3
1  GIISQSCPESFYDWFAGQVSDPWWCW [H2CA-4-G9-IGFR]              0.1
2   VEGRGLFYDLLRQLLARRQNG [20E2B-3-C6-IGFR]              0.1

# next binder below
Query :: Tell me the measured IR/IGF-1R ratio comparison of GRTMAVMAAGGPDDPFYHKLSELVQGG [B6Hα-2-D6-IR] , please.
Result :: 0.2
